- experimental-system: human Claudin-6 (CLDN6) (human) (UniProt P56747)
- assay-procedure: FACS, limiting dilution, UMUC4 cells
endpoint-name: FACS signal at 200 nM
Give only the figure.

Known FACS signal at 200 nM results, listed for orientation:
AB S2 (antibody, V domains shown) VH: EVQLLESGGGLVQPGGSMRLSCAASGFTFSNYWMNWVRQAPGKGLEWIAQIRLKSDNYATHYADSVKGRFTISRDDSKRTVYLQMNSLRAEDTGTYYCSDGPPSGSWGQGTLLTVSS VL: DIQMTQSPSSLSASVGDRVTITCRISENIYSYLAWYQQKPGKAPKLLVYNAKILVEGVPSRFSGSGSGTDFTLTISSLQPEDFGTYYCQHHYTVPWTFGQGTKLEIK	20000
AB S7 (antibody, V domains shown) VH: QVQLVQSGAEVKKPGASVKMSCKASGYTFTTYTIHWVRQAPGQGLEWIGFINPSSGYTEYAQKFQGRVTLTADKSTSTVYMELSSLRSEDTAVYFCANGDYYVAYWGQGTLVTVSS VL: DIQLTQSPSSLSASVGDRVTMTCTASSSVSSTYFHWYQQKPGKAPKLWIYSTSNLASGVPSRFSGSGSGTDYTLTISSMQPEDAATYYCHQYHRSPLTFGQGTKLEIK	16700
AB S8 (antibody, V domains shown) VH: QVQLVQSGAEVKKPGASVKMSCKASGYTFTTYTMHWVRQAPGQGLEWIGVINPSSGYTEYAQKFQGRVTLTADKSTSTVYMELSSLRSEDTAVYFCANGDYYVGYWGQGTLVTVSS VL: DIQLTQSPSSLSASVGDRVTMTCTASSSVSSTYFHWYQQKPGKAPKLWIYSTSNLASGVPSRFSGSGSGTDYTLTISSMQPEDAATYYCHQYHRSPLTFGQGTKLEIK	32900
AB S4 (antibody, V domains shown) VH: EVQLLESGGGLVQPGGSMRLSCAASGFTFSNYWMNWVRQAPGKGLEWIAQIRLKSDNYATHYTDSVKGRFTISRDDSKSTVYLQMNSLRAEDTGTYYCNDGPPSGSWGQGTLLTVSS VL: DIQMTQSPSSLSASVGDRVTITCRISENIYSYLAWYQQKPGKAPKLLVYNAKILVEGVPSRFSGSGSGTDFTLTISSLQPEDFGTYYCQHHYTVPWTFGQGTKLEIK	13500

Would you kindly look at the next entry?
Ask: Suppose we examine the binder AB S3 (antibody, V domains shown) VH: EVQLLESGGGLVQPGGSMRLSCAASGFTFSNYWMNWVRQAPGKGLEWIAQIRLKSDNYVTHYTDSVKGRFTISRDDSKRTVYLQMNSLRAEDTGIYYCSDGPPSGSWGQGTLLTVSS VL: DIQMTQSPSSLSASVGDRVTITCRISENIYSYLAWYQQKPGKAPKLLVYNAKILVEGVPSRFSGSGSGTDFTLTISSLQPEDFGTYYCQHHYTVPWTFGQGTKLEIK ; what FACS signal at 200 nM value has been reported?
Reply: 20800
